assay: Metabolic stability assay, human microsomes; assay type: in vitro ADME; conditions: both, human, microsomes, 1 h, 10 µM
As shown below, each of these compounds has a reported Metabolic Stability 60 min hum [% remain.] value.
Express your answer in % remain., writing the number without its unit.

In the examples that follow, each entry is paired with its recorded Metabolic Stability 60 min hum [% remain.].
{"columns": ["COMPOUND", "READOUT VALUE"],
 "data": [
  ["CC(=O)N1CCN([C@H]2CCCN(C)C(=O)c3cccc(c3)OC[C@@H]3C[C@H](O)CN3C2=O)CC1", 100],
  ["CN1C(=O)c2cccc(c2)OC[C@@H]2C[C@H](N)CN2C(=O)COC[C@H]1C(=O)NCc1ccc2ccccc2c1", 83],
  ["CN1CC(=O)N2C[C@@H](N)C[C@H]2COc2ccc(F)cc2C(=O)N(C)[C@@H](C(=O)NCc2ccc3ccccc3c2)CCC1=O", 91]
]}

Task item: Dear colleague, I am looking for the recorded Metabolic Stability 60 min hum [% remain.] of the following compound: CN1CCC[C@H](NC(=O)Cc2ccccc2)C(=O)N2C[C@@H](O)C[C@H]2COc2cccc(c2)C1=O
Reply: 94

Task item: Dear colleague, I am looking for the recorded Metabolic Stability 60 min hum [% remain.] of the following compound: CN1CC(=O)N2CC(NC(=O)Cc3cccc4ccccc34)CC2COc2ccc(F)cc2C(=O)N(C)C(C(=O)NCCNc2ccccn2)CCC1=O (stereo not shown)
Reply: 8

Task item: Dear colleague, I am looking for the recorded Metabolic Stability 60 min hum [% remain.] of the following compound: CN1CCC[C@H](NC(=O)OCc2ccccc2)C(=O)N2C[C@@H](NC(=O)Cc3ccc4ccccc4c3)C[C@H]2COc2cccc(c2)C1=O
Reply: 0

Task item: Dear colleague, I am looking for the recorded Metabolic Stability 60 min hum [% remain.] of the following compound: COCCNC(=O)[C@@H]1COCC(=O)N2C[C@@H](N)C[C@H]2COc2cccc(c2)C(=O)N1C
Reply: 100

---

assay: Metabolic stability assay, rat microsomes (values in parentheses); type: in vitro ADME; settings: 60 min, value in parentheses
As shown below, each of these molecules has a reported Metabolic Stability 60 min (rat) [% remain.] value.
Express your answer in % remain., writing the number without its unit.

In the examples that follow, each entry is paired with its recorded Metabolic Stability 60 min (rat) [% remain.].
{"columns": ["SMILES ENTRY", "SCALE UNIT", "READOUT VALUE"],
 "data": [
  ["COCCNC(=O)[C@@H]1COCC(=O)N2C[C@@H](N3CCN(C)CC3)C[C@H]2COc2cccc(c2)C(=O)N1C", "% remain.", 97],
  ["CN1CCC[C@H](NC(=O)CC(C)(C)C)C(=O)N2C[C@@H](O)C[C@H]2COc2cccc(c2)C1=O", "% remain.", 88],
  ["CN1C(=O)c2cccc(c2)OC[C@@H]2C[C@H](N)CN2C(=O)COC[C@H]1C(=O)NCc1ccc2ccccc2c1", "% remain.", 98],
  ["CN1CCC[C@H](N)C(=O)N2C[C@@H](OCc3ccccc3)C[C@H]2COc2cccc(c2)C1=O", "% remain.", 57],
  ["CN1CCC[C@H](N)C(=O)N2C[C@@H](OCc3ccc(-c4ccccc4)cc3)C[C@H]2COc2cccc(c2)C1=O", "% remain.", 76]
]}

Task item: Dear colleague, I am looking for the recorded Metabolic Stability 60 min (rat) [% remain.] of the following molecule: CN1CCC[C@H](NC(=O)Cc2ccccc2)C(=O)N[C@H]2CN[C@H](COc3ccc(F)cc3C1=O)C2
Reply: 96

Task item: Dear colleague, I am looking for the recorded Metabolic Stability 60 min (rat) [% remain.] of the following molecule: CN1CCC[C@H](N)C(=O)N2C[C@@H](Oc3ccccc3)C[C@H]2COc2cccc(c2)C1=O
Reply: 53

Task item: Dear colleague, I am looking for the recorded Metabolic Stability 60 min (rat) [% remain.] of the following molecule: CO[C@H]1C[C@H]2COc3cccc(c3)C(=O)N(C)CCC[C@H](NC(=O)CC(C)(C)C)C(=O)N2C1
Reply: 92

Task item: Dear colleague, I am looking for the recorded Metabolic Stability 60 min (rat) [% remain.] of the following molecule: COCCNC(=O)[C@@H]1COCC(=O)N2C[C@@H](NCC(C)C)C[C@H]2COc2cccc(c2)C(=O)N1C
Reply: 78

Task item: Dear colleague, I am looking for the recorded Metabolic Stability 60 min (rat) [% remain.] of the following molecule: CN1C(=O)c2cccc(c2)OC[C@@H]2C[C@H](NC(=O)CCc3ccncc3)CN2C(=O)COC[C@H]1C(=O)NCc1ccc2ccccc2c1
Reply: 72

---

assay: Pharmacokinetic study after single i.v. and p.o. administration in male SD rats; type: in vivo; details: male, SD, plasma; rat, po, 5 mg/kg; read-out: T1/2 (terminal) (converted)
As shown below, each of these compounds has a reported half-life value.
Form entry: enter the amount, then its unit.

{"columns": ["SMILES ENTRY", "MEASURED QUANTITY", "READOUT VALUE"],
 "data": [
  ["CN1CCC[C@H](N)C(=O)N2C[C@@H](Oc3ccccc3)C[C@H]2COc2cccc(c2)C1=O", "half-life", "3 h"],
  ["CN1CCC[C@H](N)C(=O)N2C[C@@H](OCc3ccccc3)C[C@H]2COc2cccc(c2)C1=O", "half-life", "1.92 h"]
]}

Below: the item to evaluate.
Task item: Dear colleague, I am looking for the recorded half-life of the following compound: CN1CCC[C@H](NC(=O)CC(C)(C)C)C(=O)N2C[C@@H](O)C[C@H]2COc2cccc(c2)C1=O
Reply: 2.18 h

---

molecular target: Prostaglandin F (FP) Receptor (Homo sapiens, UniProt P43088); construct: host or cells: Ca2+ optimized hematopoietic cell lines (rat); experiment: Ca2+ assay (FLIPR) for the GPCR prostaglandin F (FP) receptor, agonist and antagonist mode; assay type: cell-based; details: 10 μM
Sequence (P43088 whole entry): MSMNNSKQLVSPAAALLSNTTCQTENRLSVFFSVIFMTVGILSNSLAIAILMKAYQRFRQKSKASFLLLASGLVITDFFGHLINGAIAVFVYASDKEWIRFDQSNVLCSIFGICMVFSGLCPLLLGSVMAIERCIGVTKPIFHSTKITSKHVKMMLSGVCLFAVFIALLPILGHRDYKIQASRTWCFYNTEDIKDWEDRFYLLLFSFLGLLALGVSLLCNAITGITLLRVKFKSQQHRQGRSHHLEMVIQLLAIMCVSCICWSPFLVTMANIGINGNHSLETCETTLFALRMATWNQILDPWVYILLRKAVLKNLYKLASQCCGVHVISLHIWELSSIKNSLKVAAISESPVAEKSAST
As shown below, each of these molecules has a reported inhibition at 10 µM value.
Express your answer in %, writing the number without its unit.

{"columns": ["MOLECULE", "TARGET", "READOUT VALUE"],
 "data": [
  ["CN1CCC[C@H](NC(=O)Cc2ccc3ccccc3c2)C(=O)N2C[C@@H](NC(=O)Cc3cccc(Oc4ccccc4)c3)C[C@H]2COc2cccc(c2)C1=O [Ex. 541]", "Prostaglandin F (FP) Receptor (Homo sapiens, UniProt P43088)", 65]
]}

Task item: Dear colleague, I am looking for the recorded inhibition at 10 µM of the following molecule: CCCCCCCCCC(=O)N[C@H]1CCCNC(=O)c2cccc(c2)OC[C@@H]2C[C@H](NC(=O)Cc3ccc4ccccc4c3)CN2C1=O [Ex. 391]
Reply: 93

Task item: Dear colleague, I am looking for the recorded inhibition at 10 µM of the following molecule: CN1C[C@H](NC(=O)OCc2ccccc2)C(=O)N(C)CC(=O)N2C[C@@H](NC(=O)Cc3c[nH]c4ccccc34)C[C@H]2COc2cccc(c2)C1=O [Ex. 200]
Reply: 38

---

test: Metabolic stability assay, human microsomes; format: in vitro ADME; settings: both sexes, human, microsomes
Decide using half-life at 10 µM: a value greater than or equal to 40 min is TRUE, a smaller one is FALSE.

{"columns": ["SMILES ENTRY", "QUALITATIVE LABEL"],
 "data": [
  ["CN1CC(=O)N2C[C@H](NC(=O)CCc3ccncc3)C[C@H]2COc2ccc(cc2)C(=O)N(C)[C@H](C(=O)NCc2ccc3ccccc3c2)CCC1=O", "FALSE"],
  ["CN1CCC[C@H](N)C(=O)N2C[C@@H](OCc3ccc(-c4cncnc4)cc3)C[C@H]2COc2cccc(c2)C1=O", "TRUE"],
  ["CN1C[C@H](NC(=O)OCc2ccccc2)C(=O)N(C)CC(=O)N2C[C@@H](NC(=O)Cc3c[nH]c4ccccc34)C[C@H]2COc2cccc(c2)C1=O", "FALSE"]
]}

Task item: Kindly determine if half-life at 10 µM recorded for CO[C@H]1C[C@H]2COc3cccc(c3)C(=O)N(C)CCC[C@H](NC(=O)CC(C)(C)C)C(=O)N2C1 is above or exactly 40 min.
Reply: TRUE

Task item: Kindly determine if half-life at 10 µM recorded for CN(C)CCNC(=O)[C@@H]1CCC(=O)N(C)CC(=O)N2C[C@@H](NCCc3cccc4ccccc34)C[C@H]2COc2ccc(F)cc2C(=O)N1C is above or exactly 40 min.
Reply: FALSE

Task item: Kindly determine if half-life at 10 µM recorded for CN(C)CC(=O)N[C@H]1C[C@H]2COc3ccc(F)cc3C(=O)N(C)[C@H](C(=O)NCCc3c[nH]c4ccccc34)CCC(=O)N(C)CC(=O)N2C1 is above or exactly 40 min.
Reply: FALSE

---

experiment: Metabolic stability assay, human microsomes; assay type: in vitro ADME; settings: both, human, microsomes, 1 h, 10 µM
MEASURED QUANTITY: Metabolic Stability 60 min hum [% remain.] (% remain.)
Express your answer in % remain., writing the number without its unit.

In the examples that follow, each entry is paired with its recorded Metabolic Stability 60 min hum [% remain.].
{"columns": ["MOLECULE", "READOUT VALUE"],
 "data": [
  ["COCCNC(=O)[C@@H]1COCC(=O)N2C[C@@H](NCC(C)C)C[C@H]2COc2cccc(c2)C(=O)N1C [Ex. 376]", 79],
  ["CN1CCC[C@H](NC(=O)Cc2cccc3ccccc23)C(=O)N2C[C@@H](NC(=O)Cc3ccc4ccccc4c3)C[C@H]2COc2cccc(c2)C1=O [Ex. 505]", 9]
]}

Task item: Dear colleague, I am looking for the recorded Metabolic Stability 60 min hum [% remain.] of the following molecule: CN1CC(=O)N2C[C@H](NC(=O)CN3CCCC3)C[C@H]2COc2ccc(cc2)C(=O)N(C)[C@H](C(=O)NCc2ccncc2)CCC1=O [Ex. 266]
Reply: 100

Values were extracted from patent US9512139B2.
